testedTarget: SIK2 kinase (full length, Thermo Fisher) (Homo sapiens)
Construct: SIK2 kinase (full length, Thermo Fisher); purchased Thermo Fisher
Sequence (Q9H0K1 whole entry): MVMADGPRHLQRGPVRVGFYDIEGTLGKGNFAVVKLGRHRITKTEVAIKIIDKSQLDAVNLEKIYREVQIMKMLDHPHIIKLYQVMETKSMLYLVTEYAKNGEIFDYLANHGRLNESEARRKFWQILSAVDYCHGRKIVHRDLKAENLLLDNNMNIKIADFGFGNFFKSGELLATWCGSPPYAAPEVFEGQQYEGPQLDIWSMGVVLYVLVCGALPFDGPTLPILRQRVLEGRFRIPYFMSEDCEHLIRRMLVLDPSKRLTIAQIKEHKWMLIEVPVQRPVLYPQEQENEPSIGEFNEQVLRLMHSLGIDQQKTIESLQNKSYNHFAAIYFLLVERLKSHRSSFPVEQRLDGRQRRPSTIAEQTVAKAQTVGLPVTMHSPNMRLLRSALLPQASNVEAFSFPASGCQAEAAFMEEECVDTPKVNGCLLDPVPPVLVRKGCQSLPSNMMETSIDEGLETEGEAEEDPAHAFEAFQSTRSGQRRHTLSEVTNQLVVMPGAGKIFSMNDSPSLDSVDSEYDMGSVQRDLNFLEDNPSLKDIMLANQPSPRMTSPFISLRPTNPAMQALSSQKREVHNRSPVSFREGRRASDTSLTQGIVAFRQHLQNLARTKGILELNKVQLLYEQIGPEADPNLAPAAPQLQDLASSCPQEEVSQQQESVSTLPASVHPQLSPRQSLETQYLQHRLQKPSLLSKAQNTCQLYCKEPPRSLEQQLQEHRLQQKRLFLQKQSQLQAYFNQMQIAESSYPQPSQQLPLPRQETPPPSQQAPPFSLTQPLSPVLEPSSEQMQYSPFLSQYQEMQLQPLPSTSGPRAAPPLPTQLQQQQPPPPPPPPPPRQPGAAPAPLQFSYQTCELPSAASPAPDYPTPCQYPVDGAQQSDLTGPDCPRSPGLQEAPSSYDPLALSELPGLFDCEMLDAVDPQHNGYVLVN
test: Biochemical activities determination for SIK2 protein (TR-FRET)
appliedConditions: 80 uM ATP, 0.5 μM substrate
Experimental: 2. Biochemical Activities Determination for SIK2 Protein Compounds were tested for inhibition of SIK2 kinase (full length, Thermo Fisher) in assays based on the time-resolved fluorescence-resonance energy transfer (TR-FRET) methodology. […] Plates were sealed and incubated at room temperature for overnight, and the TR-FRET signals (ratio of fluorescence emission at 665 nm over emission at 620 nm with excitation at 337 nm wavelength) were recorded on a PHERAstar FS plate reader (BMG Labtech). […]

[
  {
    "molecule": "COc1cc(-c2coc3cc(-c4cnn(C)c4)ccc23)cc2c1C(=O)N(CC(F)(F)F)CCO2 [Compound 28]",
    "measurementUnit": "nM",
    "IC50": 140
  },
  {
    "molecule": "Cn1cc(-c2ccc3c(-c4cc5c(c(OC(F)F)c4)C(=O)N(CC(N)=O)CC5)coc3c2)cn1 [Compound 24]",
    "measurementUnit": "nM",
    "IC50": 281
  },
  {
    "molecule": "COc1cc(-c2coc3cc(OCCN4CCCC4)ccc23)cc(OC(F)F)c1C(=O)N[C@H]1C[C@H]1F [Compound 98]",
    "measurementUnit": "nM",
    "IC50": 128
  },
  {
    "molecule": "COc1cc(-c2coc3cc(-c4cnn(C)c4)cc(F)c23)cc2c1C(=O)N(CC(F)(F)F)CC2 [Example 11]",
    "measurementUnit": "nM",
    "IC50": 49
  }
]
